Ref: patent US20260014147A1

Parameter: Emax. Scope: all listed entries.
Target: STAT6 (endogenous, HiBiT-tagged) in HeLa LgBiT clone 4.14 cells (Homo sapiens)
Construct: These cells express endogenous STAT6; host or cells: HeLa LgBiT clone 4.14
Sequence (P42226 1-847): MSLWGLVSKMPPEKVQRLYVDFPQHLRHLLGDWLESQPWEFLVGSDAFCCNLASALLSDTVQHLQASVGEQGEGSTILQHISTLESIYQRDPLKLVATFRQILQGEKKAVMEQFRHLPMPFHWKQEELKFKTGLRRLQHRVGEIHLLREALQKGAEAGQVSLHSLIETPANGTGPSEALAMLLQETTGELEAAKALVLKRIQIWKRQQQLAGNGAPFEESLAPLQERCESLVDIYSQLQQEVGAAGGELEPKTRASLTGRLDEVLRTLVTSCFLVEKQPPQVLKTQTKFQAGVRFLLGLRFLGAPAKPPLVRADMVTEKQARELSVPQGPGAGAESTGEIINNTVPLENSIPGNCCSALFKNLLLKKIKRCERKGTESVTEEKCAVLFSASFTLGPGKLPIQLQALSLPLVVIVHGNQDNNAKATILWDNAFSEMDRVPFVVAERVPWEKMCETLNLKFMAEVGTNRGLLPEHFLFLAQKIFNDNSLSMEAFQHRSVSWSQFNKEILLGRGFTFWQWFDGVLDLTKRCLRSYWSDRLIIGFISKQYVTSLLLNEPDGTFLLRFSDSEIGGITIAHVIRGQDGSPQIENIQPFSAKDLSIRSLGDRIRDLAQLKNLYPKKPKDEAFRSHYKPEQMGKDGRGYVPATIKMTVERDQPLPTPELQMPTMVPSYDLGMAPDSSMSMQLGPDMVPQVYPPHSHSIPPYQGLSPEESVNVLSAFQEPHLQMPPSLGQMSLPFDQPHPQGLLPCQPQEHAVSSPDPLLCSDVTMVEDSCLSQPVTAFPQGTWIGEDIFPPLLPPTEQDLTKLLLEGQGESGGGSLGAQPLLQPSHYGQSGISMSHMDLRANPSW
Assay: STAT6 Degrader Assay (HiBiT based, HeLa LgBiT clone 4.14 cells, luminescence, DC50)
Assay type: cell-based
Conditions: Emax provided for test compounds with <80% Emax (and 2c15), geometric mean, read-out: STAT6 degradation Emax

Example compounds with recorded Emax:
>>> recorded_value("Cn1c(CN2CCC(c3ccc(C(=O)N4CCC(CN5CCN(c6ccc(NC7CCC(=O)NC7=O)cc6F)CC5)CC4)cc3)CC2)cc2c(-c3ccc(N)nc3)ccnc21 (centres unmarked)")
"50 to 60%"
>>> recorded_value("Cn1c(CN2CCC(c3ccc(C(=O)N4CCC(CN5CCC(n6ncc7c(NC8CCC(=O)NC8=O)cccc76)CC5)CC4)cc3)CC2)cc2c(-c3ccc4[nH]ncc4c3)ccnc21 (centres unmarked)")
"< 20%"
>>> recorded_value("CN(C(=O)c1ccc(C2CCN(Cc3cc4c(-c5ccc(N)nc5)ccnc4n3C)CC2)cc1)c1ccc(CC2CCN(c3ccc(NC4CCC(=O)NC4=O)cc3)CC2)cc1 (centres unmarked)")
"50 to 60%"
>>> recorded_value("Cn1c(CN2CCC(c3ccc(C(=O)N4CCC(CN5CCN(c6nccc(NC7CCC(=O)NC7=O)n6)CC5)CC4)cc3)CC2)cc2c(-c3ccc4[nH]ncc4c3)ccnc21 (centres unmarked)")
"30 to 40%"

Now look at this one.
Tell me Emax of C[C@H](c1cc2c(-c3ccc(N)nc3)ccnc2n1C)N1CCC(c2ccc(C(=O)N3CCC(CN4CCN(c5ccc(NC6CCC(=O)NC6=O)cc5F)CC4)CC3)cc2)CC1 (some centres unmarked) when tested on STAT6 (endogenous, HiBiT-tagged) in HeLa LgBiT clone 4.14 cells (Homo sapiens).
< 20%

----------
Parameter: log10 DC50. Scope: all listed entries.
Biological target: STAT6 (endogenous, HiBiT-tagged) in HeLa LgBiT clone 4.14 cells (Homo sapiens, UniProt P42226)
Construct: These cells express endogenous STAT6; host or cells: HeLa LgBiT clone 4.14
Sequence (P42226 1-847): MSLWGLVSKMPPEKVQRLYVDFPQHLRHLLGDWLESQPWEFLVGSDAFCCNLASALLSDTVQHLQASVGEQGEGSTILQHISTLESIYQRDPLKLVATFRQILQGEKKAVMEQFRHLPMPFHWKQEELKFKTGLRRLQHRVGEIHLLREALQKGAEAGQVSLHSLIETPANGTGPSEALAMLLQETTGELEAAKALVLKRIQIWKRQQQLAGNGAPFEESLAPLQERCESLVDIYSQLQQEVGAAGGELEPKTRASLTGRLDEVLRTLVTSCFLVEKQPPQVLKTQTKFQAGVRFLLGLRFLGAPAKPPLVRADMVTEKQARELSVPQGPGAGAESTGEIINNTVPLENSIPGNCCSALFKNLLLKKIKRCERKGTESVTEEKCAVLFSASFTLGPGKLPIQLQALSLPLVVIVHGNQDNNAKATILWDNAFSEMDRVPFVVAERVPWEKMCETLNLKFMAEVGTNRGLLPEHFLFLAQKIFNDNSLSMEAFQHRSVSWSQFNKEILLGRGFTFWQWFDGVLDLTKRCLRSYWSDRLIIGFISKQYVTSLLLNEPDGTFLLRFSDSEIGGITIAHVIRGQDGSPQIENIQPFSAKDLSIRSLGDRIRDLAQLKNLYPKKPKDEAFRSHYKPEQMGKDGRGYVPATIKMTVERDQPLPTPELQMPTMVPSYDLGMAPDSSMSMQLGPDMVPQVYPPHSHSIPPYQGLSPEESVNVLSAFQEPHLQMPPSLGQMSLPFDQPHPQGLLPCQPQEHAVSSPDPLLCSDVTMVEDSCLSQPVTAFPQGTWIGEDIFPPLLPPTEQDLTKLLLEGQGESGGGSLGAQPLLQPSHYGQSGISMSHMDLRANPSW
Assay: STAT6 Degrader Assay (HiBiT based, HeLa LgBiT clone 4.14 cells, luminescence, DC50)
Assay type: cell-based
Conditions: DC50 provided for test compounds with >80% Emax, geometric mean, read-out: STAT6 degradation DC50
Protocol: This was a HiBit based assay. A HeLa cell line stably transfected with a small protein, LgBit (Large Bit) was obtained from Promega. These cells express endogenous STAT6. […] Single cell clones were prepared and the clone 4.14 was selected for the assay based on that clone showing high luminescence, high STAT6 phosphorylation upon stimulation with IL-4, and inhibition of luminescence when cells were treated with STAT6 siRNA. […]
Log scale reminder: DC50 in µM, then log10 taken.

Example compounds with recorded log10 DC50:
>>> recorded_value("COCc1nc2cc(-c3ccnc4c3cc([C@H](C)N3CCC(c5ccc(C(=O)N6CCC(CN7CCN(c8ccc(NC9CCC(=O)NC9=O)cc8F)C[C@H]7C)CC6)cc5)CC3)n4C)ccc2[nH]1 (stereo partly drawn) [Example 2f1]")
-2.47
>>> recorded_value("Cn1c(CN2CCC(c3ccc(C(=O)N4CCN(C(=O)CN5CCC(c6ccc(NC7CCC(=O)NC7=O)cc6F)CC5)CC4)cc3)CC2)cc2c(-c3ccc4[nH]ncc4c3)ccnc21 (stereo not drawn) [Example 2a1]")
-2.31
>>> recorded_value("C[C@@H](c1cc2c(-c3ccc(N)nc3)ccnc2n1C)N1CCC(c2ccc(C(=O)N3CCN(CC4CCN(c5ccc(NC6CCC(=O)NC6=O)cc5F)CC4)CC3)cc2)CC1 (stereo partly drawn) [Example 2g63]")
-1.32
>>> recorded_value("C[C@@H](c1cc2c(-c3cnc(N)c(F)c3)ccnc2n1C)N1CCC(c2ccc(C(=O)N3CCC(CN4CCN(c5ccc(NC6CCC(=O)NC6=O)cc5F)CC4)CC3)cc2)CC1 (stereo partly drawn) [Example 2c24]")
-1.35

Fill in reported log10 DC50 for this entry: C[C@@H](c1cc2c(-c3ccc(N)nc3)ccnc2n1C)N1CCC(c2ccc(C(=O)N3CCC(CN4CCN(c5ccc(N[C@H]6CCC(=O)NC6=O)cc5F)CC4)CC3)cc2)CC1 (single isomer, unassigned) [Example 2c19]
-1.98

Fill in reported log10 DC50 for this entry: Cn1c(CN2CCC(c3ccc(-c4nnc5ccc(N6CCC(CN7CCN(c8ccc(NC9CCC(=O)NC9=O)cc8F)CC7)CC6)nn45)cc3)CC2)cc2c(-c3ccc(N)nc3)ccnc21 (stereo not drawn) [Example 2r1]
-3.46

Fill in reported log10 DC50 for this entry: COc1nc(N)ccc1-c1ccnc2c1cc([C@H](C)N1CCC(c3ccc(C(=O)N4CCC(CN5CCN(c6ccc(NC7CCC(=O)NC7=O)cc6F)CC5)CC4)cc3)CC1)n2C (stereo partly drawn) [Example 2c32]
-1.78

Fill in reported log10 DC50 for this entry: C[C@@H]1CN(c2ccc(NC3CCC(=O)NC3=O)cc2F)CCN1CC1CCN(C(=O)c2ccc(C3CCN(Cc4cc5c(-c6ccc(N)nc6)ccnc5n4C)CC3)cc2)CC1 (stereo partly drawn) [Example 2f6]
-1.41

Fill in reported log10 DC50 for this entry: Cn1c(CN2CCC(c3ccc(C(=O)N4CCC(CN5CCN(c6ncc(NC7CCC(=O)NC7=O)cn6)CC5)CC4)cc3)CC2)cc2c(-c3ccc4[nH]ncc4c3)ccnc21 (stereo not drawn) [Example 2k1]
-1.54

Fill in reported log10 DC50 for this entry: Cn1c(CN2CCC(c3ccc(C(=O)N4CCC(CN5CCN(c6ccc(NC7CCC(=O)NC7=O)cn6)CC5)CC4)cc3)CC2)cc2c(-c3ccc4[nH]ncc4c3)ccnc21 (stereo not drawn) [Example 2n1]
-1.82

Fill in reported log10 DC50 for this entry: COCc1nc2cc(-c3ccnc4c3cc([C@H](C)N3CCC(c5ccc(C(=O)N6CCC(CN7CCN(c8ccc(N[C@H]9CCC(=O)NC9=O)cc8F)CC7)CC6)cc5)CC3)n4C)ccc2[nH]1 (single isomer, unassigned) [Example 2c53]
-2.33

Fill in reported log10 DC50 for this entry: CC(c1cc2c(-c3ccc(N)nc3)ccnc2n1C)N1CCC(c2ccc(C(=O)N3CCC(CN4CCN(c5ccc(N[C@H]6CCC(=O)NC6=O)cc5F)CC4)CC3)cc2)CC1 (single isomer, unassigned) [Example 2c11]
-1.95
